Entries annotated with measured protein stability index
B1: DYRK1B (parent)
chain: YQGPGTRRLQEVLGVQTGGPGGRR

# Variants of: B1
# protocol_details: protein stability index of a GFP-peptide fusion (GPS, HEK-293T) (PSI 1-6); higher = more stable;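 also: lentivirally expressed fusions sorted by FACS into six bins by GFP to DsRed ratio, PSI derived from sequencing read proportions per bin multiplied by bin number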
# experimental_conditions: c terminus: a fixed tail appended
readout_label: protein stability index

P4S ... 2.32
T17Y ... 3.11
G5M ... 2.46
V12Y ... 3.05
R24S ... 3.45
R7I ... 3.57
L9K ... 4.06
P20C ... 3.49
R23A ... 4.05
P4T ... 2.79
V15S ... 3.59
T6V ... 3.02
R7N ... 2.65
R24I ... 3.75
G18L ... 2.74
G3N ... 3.71
T17I ... 2.75
G22A ... 3.13
Q10T ... 3.39
G3Q ... 3.11
R8Q ... 3.67
G22I ... 3.75
V15R ... 3.34
G22M ... 2.67
Y1V ... 4.28
G21E ... 3.13
R7Y ... 3.1
G21V ... 2.2
E11A ... 2.57
R23N ... 3.29
Y1W ... 3.9
Q10H ... 2.98
L13Y ... 3.63
L13P ... 3.44
G5I ... 2.76
G5K ... 2.94
Q16V ... 2.61
G14V ... 3.14
E11R ... 2.88
Q2H ... 2.26
P4E ... 3.3
G18H ... 3.19
Q16M ... 2.98
Q16N ... 3.32
G18W ... 2.81
L9I ... 2.97

The measured values listed here are drawn from the supplement of paper PMC10567573.
